Molecular target: ERα full-length (Homo sapiens)
Construct: 34 nM ERα full-length and 1.4 nM Fluormone EL Red were incubated; purchased ThermoFisher A15884
Sequence (P03372 whole entry): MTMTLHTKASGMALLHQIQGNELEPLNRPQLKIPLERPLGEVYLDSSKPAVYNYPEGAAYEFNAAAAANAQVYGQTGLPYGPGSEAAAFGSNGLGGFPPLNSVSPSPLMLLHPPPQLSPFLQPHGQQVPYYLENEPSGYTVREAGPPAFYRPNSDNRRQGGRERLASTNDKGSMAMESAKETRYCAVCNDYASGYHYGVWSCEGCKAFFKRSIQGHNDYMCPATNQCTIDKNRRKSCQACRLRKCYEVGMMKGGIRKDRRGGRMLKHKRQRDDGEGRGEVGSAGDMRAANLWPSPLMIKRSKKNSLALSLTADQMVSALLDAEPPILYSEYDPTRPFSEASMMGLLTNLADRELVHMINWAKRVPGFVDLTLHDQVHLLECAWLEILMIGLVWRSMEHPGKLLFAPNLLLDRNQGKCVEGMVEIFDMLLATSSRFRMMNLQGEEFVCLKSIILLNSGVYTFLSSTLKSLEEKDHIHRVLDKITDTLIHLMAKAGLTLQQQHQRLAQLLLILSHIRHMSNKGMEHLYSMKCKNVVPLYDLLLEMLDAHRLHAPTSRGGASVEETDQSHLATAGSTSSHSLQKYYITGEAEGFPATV
Assay: PolarScreen ERα Competitor Assay (fluorescence polarization)
Format: binding
test.readout: displacement of the Fluormone tracer from ERα

>>> result("Cc1cc(Cl)c2nc(-c3ccc(F)cc3)cn2c1 [X19724]")
"did not"
>>> result("Fc1ccc(-c2cn3cc(C(F)(F)F)cc(Cl)c3n2)cc1 [X15695]")
"did not"
>>> result("Cc1cc(Cl)c2nc(-c3ccccc3)cn2c1 [X19728]")
"did not"

###

Molecular target: AHR-Hsp90-XAP2 (Homo sapiens)
Construct: made in house
Sequence (P35869 11-437 limits assumed): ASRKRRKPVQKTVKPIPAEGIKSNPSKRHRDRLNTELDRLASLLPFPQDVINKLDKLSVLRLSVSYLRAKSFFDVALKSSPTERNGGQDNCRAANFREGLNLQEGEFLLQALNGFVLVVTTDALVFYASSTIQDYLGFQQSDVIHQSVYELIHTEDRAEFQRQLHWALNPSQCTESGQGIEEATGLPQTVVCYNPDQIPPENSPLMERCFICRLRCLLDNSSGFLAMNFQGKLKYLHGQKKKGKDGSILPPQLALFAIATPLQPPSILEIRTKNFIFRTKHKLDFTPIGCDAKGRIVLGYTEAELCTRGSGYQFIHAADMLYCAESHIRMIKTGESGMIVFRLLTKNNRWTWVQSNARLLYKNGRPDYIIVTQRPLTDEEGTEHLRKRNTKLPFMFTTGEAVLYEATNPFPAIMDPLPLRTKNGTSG
Sequence (P08238 whole entry partner): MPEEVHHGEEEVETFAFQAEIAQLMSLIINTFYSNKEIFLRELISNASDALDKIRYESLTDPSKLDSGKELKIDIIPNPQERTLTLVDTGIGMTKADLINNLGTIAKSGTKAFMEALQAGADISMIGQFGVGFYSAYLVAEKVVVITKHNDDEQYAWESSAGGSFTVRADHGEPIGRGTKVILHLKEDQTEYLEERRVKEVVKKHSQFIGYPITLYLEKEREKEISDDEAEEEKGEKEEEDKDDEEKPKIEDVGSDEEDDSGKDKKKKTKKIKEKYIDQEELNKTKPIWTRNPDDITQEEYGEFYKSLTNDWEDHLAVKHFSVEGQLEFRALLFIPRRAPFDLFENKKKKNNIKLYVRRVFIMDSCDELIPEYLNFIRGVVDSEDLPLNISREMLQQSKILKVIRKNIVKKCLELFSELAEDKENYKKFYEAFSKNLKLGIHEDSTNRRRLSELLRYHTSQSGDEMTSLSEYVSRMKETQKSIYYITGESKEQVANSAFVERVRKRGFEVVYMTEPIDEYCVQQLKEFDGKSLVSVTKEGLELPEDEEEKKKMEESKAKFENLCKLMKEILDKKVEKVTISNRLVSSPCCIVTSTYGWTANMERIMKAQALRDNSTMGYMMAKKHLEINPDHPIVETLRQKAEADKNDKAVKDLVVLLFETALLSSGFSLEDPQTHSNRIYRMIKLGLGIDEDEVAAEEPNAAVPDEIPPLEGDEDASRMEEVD
Sequence (O00170 whole entry partner): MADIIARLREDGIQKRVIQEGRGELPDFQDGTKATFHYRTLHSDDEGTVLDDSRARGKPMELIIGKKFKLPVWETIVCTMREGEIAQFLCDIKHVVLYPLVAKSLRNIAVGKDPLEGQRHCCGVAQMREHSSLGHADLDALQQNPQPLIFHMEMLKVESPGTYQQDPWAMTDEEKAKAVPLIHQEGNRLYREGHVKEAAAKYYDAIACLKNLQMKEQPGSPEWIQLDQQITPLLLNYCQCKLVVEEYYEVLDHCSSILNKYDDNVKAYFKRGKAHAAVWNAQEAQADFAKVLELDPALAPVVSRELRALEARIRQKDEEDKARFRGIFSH
Assay: Thermal stability measurements (nano-DSF)
Type: binding
Details: 2.5 μM protein, 12.5 μM compound
test.readout: thermal stabilization of AHR (nano-DSF)

>>> result("Fc1ccc(-c2cn3cc(C(F)(F)F)cc(Cl)c3n2)cc1")
"bona fide AHR ligands"
>>> result("Cc1cc(Cl)c2nc(-c3ccc(F)cc3)cn2c1")
"bona fide AHR ligands"
>>> result("Cc1cc(Cl)c2nc(-c3ccccc3)cn2c1")
"bona fide AHR ligands"
